- TARGET_ENTITY: T1, Tp0751_(99–237) (Treponema pallidum subsp. pallidum, …, UniProt O83732)
- T1 construct: Tp0751 of Treponema pallidum, amino acids 99-237 (N-terminal truncation; alpha helix cap 99-114 and lipocalin domain 115-237)
- PROCEDURE_TEXT: ELISA; epitope mapping: 33pM of antibody on plate-coated Tp0751_(24–237), Tp0751_(99–237) or Tp0751_(115–237)
- CONDITION_DESCRIPTION: both partners purified
OBSERVABLE: binding result

2092D3 (antibody, V domains shown, made as rabbit IgG; source: produced and purified as rabbit IgG by Sino Biological) VH: QSVEESGGRLVTPGTPLTLTCTVSGFSLSSYTMSWVRQAPGKGLEWIGVISGSDTLSYATWAKGRFTISKTSTTVDLKITSPTTADTATYFCARDGGYSDYDHAPNIWGPGTLVTVSL VL: DVVMTQTPASVEAAVGGTVTIKCQASQSIYNYLAWYQQKPGQPPKLLIYQASKVASGVPSRFKGRGSGTQFTLTISDLECADAATYYCQWSFYDSNYIGAFGGGTEVVVK
binds
2101A3 (antibody, V domains shown, made as rabbit IgG; source: produced and purified as rabbit IgG by Sino Biological) VH: QSLEESGGGLVKPGGTLTLTCKASGFDLSSYYYMCWVRQAPGKGLEWIACTYISSGSTWYASWAKGRFTVSKPSSTTVTLQMTSLTAADTATYFCAREVGSPEYGYYLDLWGPGTLVTVSS VL: DVVMTQTPASVEAAVGGTVTIKCQASQSISSWLSWYQQKPGQPPKLLIYQASKLASGVPSRFKGSGCGTEYTLTISDLECADGATYYCQTYYGSGSSNYHAFGGGTEVVVK
binds
2101D12 (antibody, V domains shown, made as rabbit IgG; source: produced and purified as rabbit IgG by Sino Biological) VH: QQLEESGGGLVKPGGTLTLTCKASGWDFSSSYWISWVRQAPGKGLEWIAYINTDSLKTYYATWAKGRFTVSKTSSTTVTLQVTSLTAADTATYFCADGAFWGPGTLVTVSS VL: DVVMTQTPASVSAAVGGTVTINCQASQSINSWLSWYQQKPGQPPKRLINDASTLESGVPSRFKGSGCGTQFTLTISDLECADAATYYCQSHYFSRSIDYYNAFGGGTEVVVK
binds
